# test system: human NAMPT enzyme (His-hNAMPT) (Homo sapiens (Human))
# Sequence (P43490 whole entry): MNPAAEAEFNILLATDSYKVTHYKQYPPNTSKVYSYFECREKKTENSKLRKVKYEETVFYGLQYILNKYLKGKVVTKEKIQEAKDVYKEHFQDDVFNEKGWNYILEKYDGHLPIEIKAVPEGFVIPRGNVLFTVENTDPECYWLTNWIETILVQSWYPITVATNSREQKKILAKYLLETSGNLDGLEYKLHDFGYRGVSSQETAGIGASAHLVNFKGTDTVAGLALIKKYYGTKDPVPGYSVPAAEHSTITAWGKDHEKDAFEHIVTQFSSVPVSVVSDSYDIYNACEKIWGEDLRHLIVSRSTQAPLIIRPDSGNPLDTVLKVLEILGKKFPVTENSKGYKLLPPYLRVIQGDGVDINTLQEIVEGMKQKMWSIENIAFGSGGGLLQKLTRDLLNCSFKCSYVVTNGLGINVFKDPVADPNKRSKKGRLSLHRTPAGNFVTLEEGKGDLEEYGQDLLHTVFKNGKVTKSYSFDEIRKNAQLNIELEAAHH
# experiment description: NAMPT enzymatic inhibition assay (fluorescence, NADH product)
# Assay type: biochemical
# particulars: [BPS]; read-out: NAMPT IC50 (μM) [BPS]

# compound, test system, IC50
rows = [
    ("CC(C)(C)OC(=O)N1C[C@H]2C[C@@H](CNC(=O)N3Cc4ccncc4C3)C[C@H]2C1 [Example 267]", "human NAMPT enzyme (His-hNAMPT) (Homo sapiens (Human))", "0.01 to 0.49 µM"),
    ("O=C(NCC[C@@H]1[C@H]2CN(C(=O)OC3CCOCC3)C[C@@H]12)c1cnc2nccn2c1 [Example 79]", "human NAMPT enzyme (His-hNAMPT) (Homo sapiens (Human))", "0.01 to 0.49 µM"),
    ("O=C(NCC[C@@H]1[C@H]2CN(C(=O)NC3CCOCC3)C[C@@H]12)c1cc2ccncc2o1 [Example 59]", "human NAMPT enzyme (His-hNAMPT) (Homo sapiens (Human))", "0.5 to 0.99 µM"),
    ("CC(C)(C)NC(=O)N1C[C@@H]2[C@@H](CCNC(=O)c3cc4cnccc4[nH]3)[C@@H]2C1 [Example 82]", "human NAMPT enzyme (His-hNAMPT) (Homo sapiens (Human))", "0.01 to 0.49 µM"),
    ("O=C(NCC[C@@H]1[C@H]2CN(S(=O)(=O)C3CCOCC3)C[C@@H]12)c1cc2ccncc2o1 [Example 73]", "human NAMPT enzyme (His-hNAMPT) (Homo sapiens (Human))", "1 to 29 µM"),
    ("CC1(OC(=O)N2C[C@@H]3[C@@H](CCNC(=O)c4cc(-c5cccnc5)on4)[C@@H]3C2)COC1 [Example 50]", "human NAMPT enzyme (His-hNAMPT) (Homo sapiens (Human))", "0.01 to 0.49 µM"),
    ("O=C(O)c1cccc(C(=O)N2C[C@@H]3[C@@H](CCNC(=O)c4cc5ccncc5o4)[C@@H]3C2)c1 [Example 180]", "human NAMPT enzyme (His-hNAMPT) (Homo sapiens (Human))", "0.5 to 0.99 µM"),
    ("CC1(OC(=O)N2C[C@@H]3[C@@H](CCNC(=O)c4cnc5[nH]ncc5c4)[C@@H]3C2)COC1 [Example 55]", "human NAMPT enzyme (His-hNAMPT) (Homo sapiens (Human))", "> 30 µM"),
    ("CC(C)(C)OC(=O)N1C[C@@H]2[C@@H](CCNC(=O)c3cc(-c4cccnc4)on3)[C@@H]2C1 [Example 12]", "human NAMPT enzyme (His-hNAMPT) (Homo sapiens (Human))", "< 0.01 µM"),
    ("Nc1ccc(/C=C/C(=O)NCC[C@@H]2[C@H]3CN(C(=O)NC4CCOCC4)C[C@@H]23)cn1 [Example 32]", "human NAMPT enzyme (His-hNAMPT) (Homo sapiens (Human))", "0.01 to 0.49 µM"),
    ("Nc1ccc(/C=C/C(=O)NCC[C@@H]2[C@H]3CN(C(=O)c4cccc(OC(F)F)c4)C[C@@H]23)cn1 [Example 91]", "human NAMPT enzyme (His-hNAMPT) (Homo sapiens (Human))", "0.01 to 0.49 µM"),
    ("O=C(/C=C/c1cccnc1)NCC[C@@H]1[C@H]2CN(c3cccc(F)c3)C[C@@H]12 [Example 128]", "human NAMPT enzyme (His-hNAMPT) (Homo sapiens (Human))", "0.01 to 0.49 µM"),
    ("CC(C)(C)OC(=O)N1C[C@H]2CC(CNC(=O)NCc3cccnc3)C[C@H]2C1 (stereo partly drawn) [Example 268]", "human NAMPT enzyme (His-hNAMPT) (Homo sapiens (Human))", "0.5 to 0.99 µM"),
    ("CC(=O)NCC[C@@H]1[C@H]2CN(C(=O)OC(C)(C)C)C[C@@H]12 [Example 14]", "human NAMPT enzyme (His-hNAMPT) (Homo sapiens (Human))", "> 30 µM"),
    ("O=C(/C=C/c1cccnc1)NCC[C@@H]1[C@H]2CN(c3cccc4ccccc34)C[C@@H]12 [Example 126]", "human NAMPT enzyme (His-hNAMPT) (Homo sapiens (Human))", "0.01 to 0.49 µM"),
    ("Nc1ccc(/C=C/C(=O)NCC[C@@H]2[C@H]3CN(C(=O)c4cccc(C(=O)O)c4)C[C@@H]23)cn1 [Example 178]", "human NAMPT enzyme (His-hNAMPT) (Homo sapiens (Human))", "0.01 to 0.49 µM"),
    ("CC1(OC(=O)N2C[C@@H]3[C@@H](CCNC(=O)c4ccc5ncsc5c4)[C@@H]3C2)COC1 [Example 44]", "human NAMPT enzyme (His-hNAMPT) (Homo sapiens (Human))", "0.01 to 0.49 µM"),
    ("CC(C)(C)NC(=O)N1C[C@@H]2[C@@H](CCNC(=O)/C=C/c3cccnc3)[C@@H]2C1 [Example 75]", "human NAMPT enzyme (His-hNAMPT) (Homo sapiens (Human))", "0.01 to 0.49 µM"),
    ("CC1(OC(=O)N2C[C@@H]3[C@@H](CCNC(=O)c4cc5cnccc5s4)[C@@H]3C2)COC1 [Example 37]", "human NAMPT enzyme (His-hNAMPT) (Homo sapiens (Human))", "0.01 to 0.49 µM"),
    ("O=C(/C=C/c1cccnc1)NCC[C@@H]1[C@H]2CN(Cc3ccccc3)C(=O)[C@@H]12 (racemic) [Example 257]", "human NAMPT enzyme (His-hNAMPT) (Homo sapiens (Human))", "0.01 to 0.49 µM"),
    ("Cc1ccccc1N1C[C@@H]2[C@@H](CCNC(=O)/C=C/c3cccnc3)[C@@H]2C1 [Example 132]", "human NAMPT enzyme (His-hNAMPT) (Homo sapiens (Human))", "0.01 to 0.49 µM"),
    ("CC(C)(C)OC(=O)N1C[C@@H]2[C@@H](CNC(=O)/C=C/c3ccc(N)nc3)[C@@H]2C1 [Example 234]", "human NAMPT enzyme (His-hNAMPT) (Homo sapiens (Human))", "1 to 29 µM"),
    ("O=C(NCC[C@@H]1[C@H]2CN(S(=O)(=O)C3CCOCC3)C[C@@H]12)c1ccc2nccn2c1 [Example 68]", "human NAMPT enzyme (His-hNAMPT) (Homo sapiens (Human))", "1 to 29 µM"),
    ("Cc1nc(C)c(C(=O)N2C[C@@H]3[C@@H](CCNC(=O)c4cc(-c5cccnc5)on4)[C@@H]3C2)o1 [Example 111]", "human NAMPT enzyme (His-hNAMPT) (Homo sapiens (Human))", "0.01 to 0.49 µM"),
    ("CC1(OC(=O)N2C[C@@H]3[C@@H](CCNC(=O)c4cc5ccncc5o4)[C@@H]3C2)COC1 [Example 27]", "human NAMPT enzyme (His-hNAMPT) (Homo sapiens (Human))", "0.01 to 0.49 µM"),
    ("Nc1ccc(/C=C/C(=O)NCC[C@@H]2[C@H]3CN(C(=O)Oc4ccccc4)C[C@@H]23)cn1 [Example 40]", "human NAMPT enzyme (His-hNAMPT) (Homo sapiens (Human))", "0.01 to 0.49 µM"),
    ("CC1(OC(=O)N2C[C@@H]3[C@@H](CCN/C(=N\\C#N)Nc4ccncc4)[C@@H]3C2)COC1 [Example 229]", "human NAMPT enzyme (His-hNAMPT) (Homo sapiens (Human))", "0.01 to 0.49 µM"),
    ("O=C(NCC[C@@H]1[C@H]2CN(C(=O)Nc3ccccc3)C[C@@H]12)c1cc2ccncc2o1 [Example 57]", "human NAMPT enzyme (His-hNAMPT) (Homo sapiens (Human))", "0.01 to 0.49 µM"),
    ("Nc1ccc(/C=C/C(=O)NCC[C@@H]2[C@H]3CN(C(=O)c4ccccc4)C[C@@H]23)cn1 [Example 25]", "human NAMPT enzyme (His-hNAMPT) (Homo sapiens (Human))", "0.01 to 0.49 µM"),
    ("O=C(NCC[C@@H]1[C@H]2CN(C(=O)N3CCCC3)C[C@@H]12)c1ccc2nccn2c1 [Example 66]", "human NAMPT enzyme (His-hNAMPT) (Homo sapiens (Human))", "1 to 29 µM"),
]
